- Test system: MAP3K3;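 further: KINOMEscan kinase panel screen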
- TEST CONDITIONS: concentration: 1 μM, replicates: in singlicate; n = 1
Hi there, I'd appreciate the recorded %Inh for every entry that follows.
Give bare numbers, in %.

Answered cases to consult:
Reported %Inh for `FC(F)(F)c1ccccc1-c1cc(-c2c[nH]nc2-c2ccccn2)ccn1` was 0

What the record says about `Nc1ncnc2occ(-c3ccc4c(c3)CCN4C(=O)Cc3cc(F)ccc3F)c12` : %Inh is 0

Noted for O=C(Nc1n[nH]c2nc(-c3ccco3)c(Br)cc12)C1CCN(Cc2ccccc2)C1.O=C(O)[C@H](O)[C@@H](O)C(=O)O (stereo not drawn) : its %Inh reads 24

// `O=C1NC(=O)C(c2ccc(Cl)cc2)=C1Nc1ccc(O)cc1` : %Inh value = 11

Please give %Inh, item by item, for the list that follows.
1. O=c1cc(N2CCOCC2)nc2n(Cc3ccccc3F)ccn12
2. Fc1ccc(-c2nc[nH]c2-c2ccncc2)cc1
3. COc1cccc(CNC(=O)NC2CCN(c3ccnc(Nc4ccc(F)cc4)n3)C2)c1 (stereo not drawn)
4. COc1ccc2cc(-c3nc(-c4ccccc4C(C)C)[nH]c3-c3ccncc3)ccc2c1

Data returned:
0
0
0
0

For this compound ( `COc1ccc(CSc2nnc(-c3ccc4ncsc4c3)o2)cc1C(F)(F)F` ), measured %Inh is 0

// data source = paper PMC5540273
